From: patent US20260242478A1

Target: T1, anti-CD28 scFv (VH - linker 1 - VL) (biotinylated (site not stated))
T1 construct: Captured as biotinylated scFv on neutravidin coated plates in the clonal phage ELISA
T1 sequence (scFv, as listed by the source): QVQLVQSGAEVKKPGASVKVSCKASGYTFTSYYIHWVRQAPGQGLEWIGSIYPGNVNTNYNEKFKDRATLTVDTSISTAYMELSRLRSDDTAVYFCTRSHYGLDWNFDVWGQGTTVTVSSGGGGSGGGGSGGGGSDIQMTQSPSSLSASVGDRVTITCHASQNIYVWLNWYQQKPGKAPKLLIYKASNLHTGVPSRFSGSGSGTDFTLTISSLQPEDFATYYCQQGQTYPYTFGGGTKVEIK
Experiment: clonal phage ELISA; captured anti-CD28 scFv pre-incubated with soluble CD28 (competitor), anti-M13-HRP detection;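 note: crude clonal phage supernatants added to wells pretreated with soluble CD28 in blocking buffer, compared against wells given blocking buffer only, then bound phage measured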
Please mark label 1 if the recorded CD28 scFv signal in presence of CD28 is equal to or greater than 0.1, and label 0 if it falls below.

Known results for binders:
binder	class name
IHWCPINMWDKCYN (tested as crude clonal phage supernatant) [Phage-206]	label 1
TTWCPTSMWLHCFD (tested as crude clonal phage supernatant) [Phage-221]	label 0
MDWCPTYMWSECFN (tested as crude clonal phage supernatant) [Phage-214]	label 1
MFWCPFDMWHFCFN (tested as crude clonal phage supernatant) [Phage-200]	label 1
TFGCPTTMWNRCFA (tested as crude clonal phage supernatant) [Phage-218]	label 0

[Q] Check this binder for CD28 scFv signal in presence of CD28 at or above 0.1: MDWCPMNMWYQCFN (tested as crude clonal phage supernatant) [Phage-216]
[A] label 1

[Q] Check this binder for CD28 scFv signal in presence of CD28 at or above 0.1: MDWCPRHMWNVCFS (tested as crude clonal phage supernatant) [Phage-204]
[A] label 1

[Q] Check this binder for CD28 scFv signal in presence of CD28 at or above 0.1: MDWCPRAMWHECFY (tested as crude clonal phage supernatant) [Phage-207]
[A] label 1

[Q] Check this binder for CD28 scFv signal in presence of CD28 at or above 0.1: NYWCPSSMWNRCLH (tested as crude clonal phage supernatant) [Phage-219]
[A] label 0
